Origin of the recorded values: ChEMBL document CHEMBL4130442

Target system: Platelet-derived growth factor receptor beta (Homo sapiens)
Sequence (P09619 whole entry): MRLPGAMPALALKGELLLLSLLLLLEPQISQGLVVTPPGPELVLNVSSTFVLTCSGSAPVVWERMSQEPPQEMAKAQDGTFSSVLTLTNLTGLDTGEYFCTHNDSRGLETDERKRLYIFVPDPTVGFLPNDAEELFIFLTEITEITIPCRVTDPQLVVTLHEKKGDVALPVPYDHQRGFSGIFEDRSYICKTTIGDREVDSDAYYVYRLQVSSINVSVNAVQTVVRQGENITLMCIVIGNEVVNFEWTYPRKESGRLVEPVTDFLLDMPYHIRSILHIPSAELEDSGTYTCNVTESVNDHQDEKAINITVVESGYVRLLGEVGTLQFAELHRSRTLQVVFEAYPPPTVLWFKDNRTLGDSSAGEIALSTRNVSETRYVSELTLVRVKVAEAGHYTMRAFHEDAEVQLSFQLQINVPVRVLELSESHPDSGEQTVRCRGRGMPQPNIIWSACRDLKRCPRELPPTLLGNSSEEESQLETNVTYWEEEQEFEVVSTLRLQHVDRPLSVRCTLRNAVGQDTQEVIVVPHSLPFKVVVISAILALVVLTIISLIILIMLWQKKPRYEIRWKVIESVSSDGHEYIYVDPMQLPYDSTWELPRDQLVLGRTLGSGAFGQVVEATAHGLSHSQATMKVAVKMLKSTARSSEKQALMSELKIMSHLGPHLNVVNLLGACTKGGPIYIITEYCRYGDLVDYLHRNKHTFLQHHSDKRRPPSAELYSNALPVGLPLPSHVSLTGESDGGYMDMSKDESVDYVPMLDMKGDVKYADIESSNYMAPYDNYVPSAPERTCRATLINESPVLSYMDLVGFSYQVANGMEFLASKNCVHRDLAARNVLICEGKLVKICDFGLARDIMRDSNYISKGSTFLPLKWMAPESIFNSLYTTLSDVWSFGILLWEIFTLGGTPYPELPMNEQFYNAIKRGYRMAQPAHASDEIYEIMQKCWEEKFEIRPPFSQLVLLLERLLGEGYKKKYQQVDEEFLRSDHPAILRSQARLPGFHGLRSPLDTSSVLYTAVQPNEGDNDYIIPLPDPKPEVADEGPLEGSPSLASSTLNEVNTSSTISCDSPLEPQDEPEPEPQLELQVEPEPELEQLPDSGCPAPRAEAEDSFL
Reported endpoint: IC50 (µM)

smiles_notation=COc1cccc(Nc2cc(N3CCN(C(=O)Nc4ccc(C(F)(F)F)cc4)CC3)ncn2)c1 reported_endpoint=IC50 unit_abbrev=µM observed_measurement=7.8

* * *

System: MDA-MB-468
Protocol: Antiproliferative activity against human MDA-MB-468 cells incubated for 24 hrs by MTT assay
Type: functional, cell-based
Condition set: MDA-MB-468, 24 h
Reported endpoint: IC50

smiles_notation=COc1cccc(Nc2cc(N3CCN(C(=O)Nc4ccc(C(F)(F)F)cc4)CC3)ncn2)c1 target_system=MDA-MB-468 reported_endpoint=IC50 observed_measurement="3.19 µM"
